src = patent US20240059769A1

Readings of HEK-IL-13 [nM] (IC50, STAT6 reporter) for the listed binders
molecular target: recombinant human IL-13 (human, UniProt P35225 35-146); experiment: cell-based or functional assay
Sequence (P35225 35-146 limits assumed): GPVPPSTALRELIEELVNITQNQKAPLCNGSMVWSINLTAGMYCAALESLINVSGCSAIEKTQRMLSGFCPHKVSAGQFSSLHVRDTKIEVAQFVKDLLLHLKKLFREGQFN
State the answer as a number, implicitly in nM.

Examples with answers:
BDG38.077 (antibody, V domains shown, IgG1) VH: QMQLVESGGGVVQPGRSLTLSCAASGFAFRTYGMHWVRQAPGKGLEWVGVIWYDGSATHYADSVKGRFTITRDNSKNTLNLQMNSLRAEDTAVYYCVRAPQWYLTAEAFDLWGQGTMVTVSS VL: SYVLTQPPSVSVAPGETATITCGGALIGSRLVHWYQQKPGQAPVLVIYDDSDRPSRIPERFSGSNIGNTATLTISDVEAGDEADYYCQVWDHSSNTYVFGGGTKLTVL; 0.0505
BDG38.080 (antibody, V domains shown, IgG1) VH: QMQLVESGGGVVQPGRSLRLSCAASGFAFRTYGMHWVRQAPGKGLEWVAVIWYDGSATHYADSVKGRFTITRDNSKNTLNLQMNSLRAEDTAVYYCVRAPQWYLSAEAFDLWGQGTMVTVSS VL: SYVLTQPPSVSVAPGETATITCGGNLIGAYLVHWYQQKPGQAPVLVIYDDSDRPDRIPERFSGSNSGNTATLTISRVEAGDEADYYCQVWDHNTNHMVFGGGTKLTVL; 0.0592

Query block: State the recorded HEK-IL-13 [nM] (IC50, STAT6 reporter) for this entry: BDG38.139 (antibody, V domains shown, IgG1) VH: QMQLVESGGGVVQPGRSLRLSCAASGFAFRTYGMHWVRQAPGKGLEWVAVIWDDGSNTHYADSVKGRFTITRDNSKNTLNLQMNSLRAEDTAVYYCVRAPQWYLSAEAFDLWGQGTMVTVSS VL: SYVLTQPPSVSVAPGETATITCGGNMIGAYLVHWYQQKPGQAPLLVIYDDVDRPARIPERFSGSNSGNTATLTISRVEAGDEADYYCQVWDHNSDHMVFGGGTKLTVL
Result block: 0.0464
